Tested On: huPPARγ (Homo sapiens, UniProt P37231)
Sequence (P37231 1-505): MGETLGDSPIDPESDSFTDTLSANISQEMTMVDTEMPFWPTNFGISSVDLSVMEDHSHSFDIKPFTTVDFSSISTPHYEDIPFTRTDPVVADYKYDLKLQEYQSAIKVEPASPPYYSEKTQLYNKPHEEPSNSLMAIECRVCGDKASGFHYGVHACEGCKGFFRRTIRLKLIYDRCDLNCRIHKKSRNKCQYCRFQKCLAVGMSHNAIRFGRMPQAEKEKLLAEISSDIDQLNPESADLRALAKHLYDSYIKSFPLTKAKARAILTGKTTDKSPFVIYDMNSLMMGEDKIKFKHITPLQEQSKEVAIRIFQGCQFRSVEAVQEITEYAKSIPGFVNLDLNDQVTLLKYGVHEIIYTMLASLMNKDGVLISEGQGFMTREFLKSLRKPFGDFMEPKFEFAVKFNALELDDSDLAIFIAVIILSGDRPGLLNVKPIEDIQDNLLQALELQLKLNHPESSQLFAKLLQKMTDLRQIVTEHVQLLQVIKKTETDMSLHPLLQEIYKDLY
Sequence (P19793 1-462 partner): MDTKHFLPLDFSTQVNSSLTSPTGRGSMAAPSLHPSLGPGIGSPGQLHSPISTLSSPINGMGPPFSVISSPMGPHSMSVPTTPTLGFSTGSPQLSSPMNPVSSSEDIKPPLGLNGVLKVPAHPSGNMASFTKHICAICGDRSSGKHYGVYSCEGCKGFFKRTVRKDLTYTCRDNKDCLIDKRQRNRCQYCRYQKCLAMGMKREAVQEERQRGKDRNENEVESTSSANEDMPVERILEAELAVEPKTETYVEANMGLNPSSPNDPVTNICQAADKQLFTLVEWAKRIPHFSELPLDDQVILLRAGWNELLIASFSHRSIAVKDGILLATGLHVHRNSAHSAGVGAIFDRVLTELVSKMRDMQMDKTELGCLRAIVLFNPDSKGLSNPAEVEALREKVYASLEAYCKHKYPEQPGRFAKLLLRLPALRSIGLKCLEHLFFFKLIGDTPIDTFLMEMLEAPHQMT
pIC50: −log10 of the molar value.
Measured Endpoint: pIC50

1. Cc1oc(-c2cccc(-c3ccccc3)c2)nc1CCOc1ccc(CC(C)(Oc2ccc(F)cc2)C(=O)O)cc1 (stereo not shown): 7.25
2. Cc1cccc(OC(C)(Cc2ccc(OCCc3nc(-c4cccc(-c5ccccc5)c4)oc3C)cc2)C(=O)O)c1 (stereo not shown): 7.27
3. Cc1oc(-c2ccc(-c3cccs3)cc2)nc1CCOc1ccc(CC(C)(Oc2ccc(C(C)(C)C)cc2)C(=O)O)cc1 (stereo not shown): 6.92
4. Cc1oc(-c2ccc(-c3ccccc3)cc2)nc1CCOc1ccc(CC(C)(Oc2ccc(C(C)(C)C)cc2)C(=O)O)cc1 (stereo not shown): 6.97
